tested on: 422866-222-R5-J1-PDC complex spheroid viability; assay: Anticancer human tumor 422866-222-R5-J1-PDC patient-derived pancreatic adenocarcinoma cell line growth inhibition [POLQ]; settings: second compound 0.0316 µM; first compound 0.316 µM; stronger effect = lower value;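 also: spheroids exposed to compounds for one week before readout; percent of DMSO vehicle wells luminescence so 100% = untreated viability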
outcome measure: viability, T/C (%)

Nc1ccn(C2OC(CO)C(O)C2(F)F)c(=O)n1 (stereo unspecified) + COC1C(OC(N)=O)C(O)C(Oc2ccc3c(O)c(NC(=O)c4ccc(O)c(CC=C(C)C)c4)c(=O)oc3c2C)OC1(C)C = 40.9
C=CC(=O)N1CCN(c2nc(=O)n(-c3c(C)ccnc3C(C)C)c3nc(-c4c(O)cccc4F)c(F)cc23)C(C)C1 (stereo unspecified) + COC1C(OC(N)=O)C(O)C(Oc2ccc3c(O)c(NC(=O)c4ccc(O)c(CC=C(C)C)c4)c(=O)oc3c2C)OC1(C)C = 29
CCc1cc2c(N3CCc4c(cc(Cn5ccnc5)cc4-c4cn(C)nc4C(F)(F)F)C3=O)cc(C)nc2c(OC)n1 + Cc1cccc(N(C)C(=O)C2C(O)CCN2c2nc(C)cc(C(F)(F)F)c2C#N)c1 = 93.1
COc1cc2cc(C(=O)CCC(=O)O)sc2cc1OC + Nc1ccc(C#CCN(C(=O)Cc2ncc(C(F)(F)F)cc2C(F)(F)F)c2ccc(F)cc2)nn1 = 94.5
O=C(c1cc(Cc2n[nH]c(=O)c3ccccc23)ccc1F)N1CCN(C(=O)C2CC2)CC1 + Cc1cccc(N(C)C(=O)C2C(O)CCN2c2nc(C)cc(C(F)(F)F)c2C#N)c1 = 89.9
CC1COCCN1c1cc(C2(O)CC3CCC(C2)O3)c2cnn(-c3ccn[nH]3)c2n1 (stereo unspecified) + Cc1cccc(N(C)C(=O)C2C(O)CCN2c2nc(C)cc(C(F)(F)F)c2C#N)c1 = 44.2
O=C(Nc1ccc(O)c(NS(=O)(=O)c2ccc(F)cc2)c1)c1ccc(-c2ccccc2)cc1 + Cc1cccc(N(C)C(=O)C2C(O)CCN2c2nc(C)cc(C(F)(F)F)c2C#N)c1 = 73.9
COc1cccc(OCCCN)c1-c1cc(Nc2cnc(C#N)cn2)n[nH]1 + Cc1cccc(N(C)C(=O)C2C(O)CCN2c2nc(C)cc(C(F)(F)F)c2C#N)c1 = 36.6
CC(C)n1c(=O)n(C)c2cnc3cc(F)c(-c4ccc(OCCCN5CCCCC5)nc4)cc3c21 + Cc1cccc(N(C)C(=O)C2C(O)CCN2c2nc(C)cc(C(F)(F)F)c2C#N)c1 = 105
CC1COCCN1c1cc(C2(O)CC3CCC(C2)O3)c2cnn(-c3ccn[nH]3)c2n1 (stereo unspecified) + Nc1ccc(C#CCN(C(=O)Cc2ncc(C(F)(F)F)cc2C(F)(F)F)c2ccc(F)cc2)nn1 = 40.7
O=C(Nc1ccc(O)c(NS(=O)(=O)c2ccc(F)cc2)c1)c1ccc(-c2ccccc2)cc1 + COC1C(OC(N)=O)C(O)C(Oc2ccc3c(O)c(NC(=O)c4ccc(O)c(CC=C(C)C)c4)c(=O)oc3c2C)OC1(C)C = 77.7
C=CCn1c(=O)c2cnc(Nc3ccc(N4CCN(C)CC4)cc3)nc2n1-c1cccc(C(C)(C)O)n1 + Cc1cccc(N(C)C(=O)C2C(O)CCN2c2nc(C)cc(C(F)(F)F)c2C#N)c1 = 48.4
CC(C)n1c(=O)n(C)c2cnc3cc(F)c(-c4ccc(OCCCN5CCCCC5)nc4)cc3c21 + Nc1ccc(C#CCN(C(=O)Cc2ncc(C(F)(F)F)cc2C(F)(F)F)c2ccc(F)cc2)nn1 = 90.3
CC1COCCN1c1cc(C2(O)CC3CCC(C2)O3)c2cnn(-c3ccn[nH]3)c2n1 (stereo unspecified) + COC1C(OC(N)=O)C(O)C(Oc2ccc3c(O)c(NC(=O)c4ccc(O)c(CC=C(C)C)c4)c(=O)oc3c2C)OC1(C)C = 45.8
CC1COCCN1c1cc(C2(S(C)(=N)=O)CC2)nc(-c2ccnc3[nH]ccc23)n1 (stereo unspecified) + COC1C(OC(N)=O)C(O)C(Oc2ccc3c(O)c(NC(=O)c4ccc(O)c(CC=C(C)C)c4)c(=O)oc3c2C)OC1(C)C = 88.4
CC1COCCN1c1cc(C2(S(C)(=N)=O)CC2)nc(-c2ccnc3[nH]ccc23)n1 (stereo unspecified) + Cc1cccc(N(C)C(=O)C2C(O)CCN2c2nc(C)cc(C(F)(F)F)c2C#N)c1 = 98.9
COc1ccc([C@@H](O)c2cc(-c3ncnc4cc(N5CCOCC5)ccc34)c(F)cc2Cl)nn1 + Cc1cccc(N(C)C(=O)C2C(O)CCN2c2nc(C)cc(C(F)(F)F)c2C#N)c1 = 77.4
O=c1[nH]cc(F)c(=O)[nH]1 + Nc1ccc(C#CCN(C(=O)Cc2ncc(C(F)(F)F)cc2C(F)(F)F)c2ccc(F)cc2)nn1 = 89.4
COc1cc(C2c3cc4c(cc3C(OC3OC5COC(C)OC5C(O)C3O)C3COC(=O)C23)OCO4)cc(OC)c1O (stereo unspecified) + Nc1ccc(C#CCN(C(=O)Cc2ncc(C(F)(F)F)cc2C(F)(F)F)c2ccc(F)cc2)nn1 = 62.7
CC1COCCN1c1cc(C2(S(C)(=N)=O)CC2)nc(-c2ccnc3[nH]ccc23)n1 (stereo unspecified) + Nc1ccc(C#CCN(C(=O)Cc2ncc(C(F)(F)F)cc2C(F)(F)F)c2ccc(F)cc2)nn1 = 80.9
C=CCn1c(=O)c2cnc(Nc3ccc(N4CCN(C)CC4)cc3)nc2n1-c1cccc(C(C)(C)O)n1 + COC1C(OC(N)=O)C(O)C(Oc2ccc3c(O)c(NC(=O)c4ccc(O)c(CC=C(C)C)c4)c(=O)oc3c2C)OC1(C)C = 54.3
